All figures here come from PubChem BioAssay (EPA / NIEHS).

Read-out: Epidermal growth factor receptor (EGFR), EGFR (gene 1956)
Assay: BSK_hDFCGF_EGFR: BioMAP Diversity Plus: hDFCGF Assay for Epidermal growth factor receptor (EGFR) Biomarker Activity (AID 2283057)
Conditions: primary human foreskin fibroblasts; actives raise or lower the signal
Activity calls are given as the source filed them. How the source made its calls: active means hit-call score of the fitted dose curve at least 0.9, where 1 is the maximum; inactive means score below 0.9.
Select the correct class. Options are TRUE (active), FALSE (inactive) and nothing else.

[
  {
    "COMPOUND": "O=C(O)C(F)(F)C(F)(F)C(=O)O",
    "CATEGORY LABEL": "FALSE"
  },
  {
    "COMPOUND": "COP(=O)(O)OC",
    "CATEGORY LABEL": "FALSE"
  },
  {
    "COMPOUND": "CC(Cc1ccc(OCC(=O)O)cc1)NCC(O)c1csc(C(F)(F)F)n1 (stereo not given)",
    "CATEGORY LABEL": "FALSE"
  },
  {
    "COMPOUND": "Nc1cc2c3c(c1)C(c1ccccc1)=N[C@@H](NC(=O)c1cccnc1)C(=O)N3CC2",
    "CATEGORY LABEL": "FALSE"
  },
  {
    "COMPOUND": "Nc1ccc([N+](=O)[O-])cc1Cl",
    "CATEGORY LABEL": "FALSE"
  }
]

Each compound tested received a call. Report the one for `O=S(=O)(F)C(F)(F)C(F)(F)C(F)(F)C(F)(F)C(F)(F)C(F)(F)C(F)(F)C(F)(F)F` . FALSE

I'd appreciate the recorded outcome for `Cc1ccc([N+](=O)[O-])cc1C` from this test. FALSE

Could you kindly confirm the outcome this assay logged for `CCCCN(CCCC)N=O` ? FALSE

Hello, I am checking results. What call was entered for COC(=O)C(F)(F)C(F)(F)OC(F)(C(F)(F)F)C(F)(F)OC(F)=C(F)F (stereo not given) ? FALSE

Give the logged outcome of this assay for the following compound: O=P(OCC(Br)CBr)(OCC(Br)CBr)OCC(Br)CBr (stereo not given) FALSE
